Numbers sourced from patent US10660877B2.

assayed_target: human TLR7 (Homo sapiens (Human))
Sequence (Q9NYK1 27-1049): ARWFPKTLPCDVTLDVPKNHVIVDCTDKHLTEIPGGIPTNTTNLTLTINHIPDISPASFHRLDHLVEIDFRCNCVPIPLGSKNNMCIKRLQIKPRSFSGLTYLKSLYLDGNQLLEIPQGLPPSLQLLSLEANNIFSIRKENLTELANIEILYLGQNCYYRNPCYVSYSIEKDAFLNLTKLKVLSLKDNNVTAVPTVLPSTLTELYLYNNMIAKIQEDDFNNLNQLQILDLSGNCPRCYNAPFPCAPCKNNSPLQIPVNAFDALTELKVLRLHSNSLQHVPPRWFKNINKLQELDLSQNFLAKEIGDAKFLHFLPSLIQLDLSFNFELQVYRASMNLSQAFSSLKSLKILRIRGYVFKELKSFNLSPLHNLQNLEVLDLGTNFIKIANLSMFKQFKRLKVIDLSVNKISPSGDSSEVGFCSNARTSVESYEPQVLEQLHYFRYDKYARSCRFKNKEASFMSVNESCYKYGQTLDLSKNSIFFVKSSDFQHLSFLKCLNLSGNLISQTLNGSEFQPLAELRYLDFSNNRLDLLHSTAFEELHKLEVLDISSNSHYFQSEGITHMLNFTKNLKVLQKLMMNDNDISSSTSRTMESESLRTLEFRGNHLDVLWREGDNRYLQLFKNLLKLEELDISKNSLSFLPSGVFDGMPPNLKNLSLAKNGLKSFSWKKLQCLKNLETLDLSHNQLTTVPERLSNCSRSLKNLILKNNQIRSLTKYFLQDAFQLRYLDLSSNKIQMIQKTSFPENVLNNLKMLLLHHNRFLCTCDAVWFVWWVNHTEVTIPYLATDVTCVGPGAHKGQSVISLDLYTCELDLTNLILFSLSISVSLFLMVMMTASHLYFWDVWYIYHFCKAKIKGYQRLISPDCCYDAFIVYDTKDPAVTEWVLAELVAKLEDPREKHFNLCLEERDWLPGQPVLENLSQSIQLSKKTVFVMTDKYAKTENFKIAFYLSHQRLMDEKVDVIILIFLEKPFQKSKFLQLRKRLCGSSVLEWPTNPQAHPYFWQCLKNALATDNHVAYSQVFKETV
experiment_description: TLR7 inhibition reporter assay (HEK-Blue cells, SEAP reporter, gardiquimod stimulation)
Assay type: cell-based
assay_context: HEK-Blue cells overexpressing human TLR7, gardiquimod 7.5 μM
The entries below come with measured pIC50 values attached.
# pIC50: negative log10 of molar concentration; output just the value

Solved entries:
{"compound": "Cc1nccc(-c2[nH]c3ccc(C4CCN(C)CC4)cc3c2C(C)C)c1C [Example 637]", "pIC50": 7.44}
{"compound": "Cc1cc(-c2[nH]c3ccc(C4CCN(CC(=O)N5CCCC5C)CC4)cc3c2C(C)C)cc(C)n1 (stereo not shown) [Example 259]", "pIC50": 8.35}
{"compound": "Cc1cc(-c2[nH]c3ccc(C4CCN(C(=O)C(C)(C)N)CC4)cc3c2C(C)C)cc(C)n1 [Example 194]", "pIC50": 9.22}

Challenge: Identify measured pIC50 corresponding to Cc1cc(-c2[nH]c3ccc(C4CCN(CC5CCN(C)CC5)CC4)cc3c2C(C)C)ccn1 [Example 743]
Response given: 8.19

Challenge: Identify measured pIC50 corresponding to COc1cc(-c2[nH]c3ccc(C4CCN(C)CC4)cc3c2C(C)C)ccn1 [Example 638]
Response given: 7.81

Challenge: Identify measured pIC50 corresponding to Cc1cc(-c2[nH]c3ccc(C4CCN(CC(=O)N5CCCC(F)C5)CC4)cc3c2C(C)C)cc(C)n1 (stereo not shown) [Example 258]
Response given: 8.12

Challenge: Identify measured pIC50 corresponding to CCCCN(CCO)CC(=O)N1CCC(c2ccc3[nH]c(-c4cc(C)nc(C)c4)c(C(C)C)c3c2)CC1 [Example 414]
Response given: 8.62

Challenge: Identify measured pIC50 corresponding to Cc1cc(-c2[nH]c3ccc(C4CCN(CC(=O)N(C)C)CC4)cc3c2CC(F)F)cc(C)n1 [Example 531]
Response given: 7.80

Challenge: Identify measured pIC50 corresponding to Cc1cc(-c2[nH]c3ccc(C4CCN(Cc5cncs5)CC4)cc3c2C(C)C)c(C)cn1 [Example 687]
Response given: 7.59

Challenge: Identify measured pIC50 corresponding to Cc1cc(-c2[nH]c3ccc(C4CCNCC4)cc3c2C(C)C)c(F)cn1 [Example 16]
Response given: 8.82

Challenge: Identify measured pIC50 corresponding to CC(C)c1c(-c2ccncc2NC(=O)C(C)(C)C)[nH]c2ccc(C3CCNCC3)cc12 [Example 37]
Response given: 4.37

Challenge: Identify measured pIC50 corresponding to Cc1cc(-c2[nH]c3ccc(C4CCN(CC(=O)N5CCC(C)CC5)CC4)cc3c2C(C)C)cc(C)n1 [Example 269]
Response given: 8.43

----------
assayed_target: UniProt Q9NR97
experiment_description: TLR8 inhibition reporter assay (HEK-Blue cells, SEAP reporter, R848 stimulation)
assay_context: read-out: TLR8 IC50, HEK-Blue cells, R848 15.9 μM
The entries below come with measured pIC50 values attached.
# pIC50: negative log10 of molar concentration; output just the value

{"compound": "Cc1cc(-c2[nH]c3ccc(C4CCN(CC5(C)COC5)CC4)cc3c2C(C)C)c(C)cn1", "metric_name": "pIC50", "value": 8.55}

Challenge: Identify measured pIC50 corresponding to Cc1cc(-c2[nH]c3cc(F)c(C4CCN(C5COC5)CC4)cc3c2C(C)C)cc(C)n1
Response given: 7.62

Challenge: Identify measured pIC50 corresponding to Cc1cc(-c2[nH]c3cc(C(F)(F)F)c(C4CCN(CC5CCNC5)CC4)cc3c2C(C)C)ccn1 (stereo not drawn)
Response given: 6.33

----------
The entries below come with measured pIC50 values attached.
assayed_target: human TLR8 (Homo sapiens (Human), UniProt Q9NR97)
Sequence (Q9NR97 27-1041): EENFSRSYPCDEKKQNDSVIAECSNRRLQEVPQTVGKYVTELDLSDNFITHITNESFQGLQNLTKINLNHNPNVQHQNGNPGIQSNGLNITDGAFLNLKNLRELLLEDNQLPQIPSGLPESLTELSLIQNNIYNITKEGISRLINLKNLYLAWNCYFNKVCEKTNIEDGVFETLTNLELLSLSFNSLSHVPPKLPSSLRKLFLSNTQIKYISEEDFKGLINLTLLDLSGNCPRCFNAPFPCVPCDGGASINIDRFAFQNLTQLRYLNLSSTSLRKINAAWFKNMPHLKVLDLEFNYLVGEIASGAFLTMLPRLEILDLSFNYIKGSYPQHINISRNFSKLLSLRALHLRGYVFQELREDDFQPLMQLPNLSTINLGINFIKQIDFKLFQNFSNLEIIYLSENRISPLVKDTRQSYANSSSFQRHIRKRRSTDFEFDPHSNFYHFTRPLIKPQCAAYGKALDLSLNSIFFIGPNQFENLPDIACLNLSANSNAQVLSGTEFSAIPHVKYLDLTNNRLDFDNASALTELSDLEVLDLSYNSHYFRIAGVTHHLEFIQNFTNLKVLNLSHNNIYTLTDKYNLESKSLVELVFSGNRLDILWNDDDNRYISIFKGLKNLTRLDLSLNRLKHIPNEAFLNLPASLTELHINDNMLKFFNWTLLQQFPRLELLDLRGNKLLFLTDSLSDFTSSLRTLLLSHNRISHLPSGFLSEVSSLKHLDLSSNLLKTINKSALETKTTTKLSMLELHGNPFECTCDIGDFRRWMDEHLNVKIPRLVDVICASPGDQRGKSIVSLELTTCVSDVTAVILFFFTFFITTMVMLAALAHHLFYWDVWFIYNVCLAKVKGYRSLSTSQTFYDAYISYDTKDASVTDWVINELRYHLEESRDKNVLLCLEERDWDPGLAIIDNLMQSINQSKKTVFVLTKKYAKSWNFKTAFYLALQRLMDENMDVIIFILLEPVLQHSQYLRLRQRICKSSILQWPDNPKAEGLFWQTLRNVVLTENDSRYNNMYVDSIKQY
experiment_description: TLR8 inhibition reporter assay (HEK-Blue cells, SEAP reporter, R848 stimulation)
assay_context: read-out: TLR8 IC50, HEK-Blue cells overexpressing human TLR8, R848 15.9 μM
# pIC50: negative log10 of molar concentration; output just the value

Solved entries:
{"compound": "Cc1cc(-c2[nH]c3ccc(C4CCN(CCC(F)(F)F)CC4)cc3c2C(C)C)cc(C)n1 [Example 677]", "pIC50": 8.17}
{"compound": "Cc1cc(-c2[nH]c3ccc(C4CCN(C(=O)CN5CCCC5=O)CC4)cc3c2C(C)C)cc(C)n1 [Example 154]", "pIC50": 7.53}
{"compound": "COCCC(=O)N1CCC(c2ccc3[nH]c(-c4cc(C)nc(C)c4)c(C(C)C)c3c2)CC1 [Example 118]", "pIC50": 7.10}
{"compound": "CNC(C)(C)C(=O)N1CCC(c2ccc3[nH]c(-c4cc(C)nc(C)c4)c(C(C)C)c3c2)CC1 [Example 187]", "pIC50": 7.98}
{"compound": "COC1CN(C(=O)CN2CCC(c3ccc4[nH]c(-c5cc(C)nc(C)c5)c(C(C)C)c4c3)CC2)C1 [Example 226]", "pIC50": 7.91}

Challenge: Identify measured pIC50 corresponding to Cc1cc(-c2[nH]c3ccc(C4CCN(Cc5cc(C)on5)CC4)cc3c2C(C)C)c(C)cn1 [Example 685]
Response given: 8.47

Challenge: Identify measured pIC50 corresponding to Cc1cc(-c2[nH]c3ccc(C4CCN(C(=O)CCN5CCOCC5)CC4)cc3c2C(C)C)cc(C)n1 [Example 128]
Response given: 7.81

Challenge: Identify measured pIC50 corresponding to Cc1cc(-c2[nH]c3ccc(C4CCN(Cc5c[nH]nn5)CC4)cc3c2C(C)C)c(F)cn1 [Example 691]
Response given: 8.59

----------
assayed_target: human TLR8 (Homo sapiens (Human), UniProt Q9NR97)
experiment_description: TLR8 inhibition reporter assay (HEK-Blue cells, SEAP reporter, R848 stimulation);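 note: compounds tested from 0.05 nM to 50 µM, 22 h at 37 °C, SEAP measured with HEK-Blue Detection, inhibition relative to agonist plus DMSO versus a known inhibitor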
assay_context: read-out: TLR8 IC50, HEK-Blue cells overexpressing human TLR8, R848 15.9 μM
metric_name: IC50 (nM)
The response must be a number in nM with no trailing unit.

{"compound": "Cc1cc(-c2[nH]c3ccc(C4CCN(C(=O)C5CCN(Cc6ccccc6)C5)CC4)cc3c2C(C)C)ccn1 (centres unmarked)", "value": 18.5}
{"compound": "CCC(O)CN1CCC(c2ccc3[nH]c(-c4ccnc(C)c4)c(C(C)C)c3c2)CC1 (centres unmarked)", "value": 4.5}

Challenge: Identify measured IC50 corresponding to Cc1cc(-c2[nH]c3ccc(C4CCN(C(=O)CN(C)Cc5cc(C)on5)CC4)cc3c2C(C)C)cc(C)n1
Response given: 72.3

Challenge: Identify measured IC50 corresponding to Cc1cc(-c2[nH]c3ccc(C4CCN(C(=O)CN5CC(=O)NC5=O)CC4)cc3c2C(C)C)cc(C)n1
Response given: 83.8

Challenge: Identify measured IC50 corresponding to COc1cc(-c2[nH]c3ccc(C4CCN(C5CCN(CC(C)C)CC5)CC4)cc3c2C(C)C)ccn1
Response given: 333

----------
assayed_target: human TLR8 (Homo sapiens (Human))
experiment_description: TLR8 inhibition reporter assay (HEK-Blue cells, SEAP reporter, R848 stimulation)
assay_context: read-out: TLR8 IC50, HEK-Blue cells overexpressing human TLR8, R848 15.9 μM
pIC50: −log10 of the molar value.
We use 8 as the dividing line for pIC50: on or above the line is rule met, below is rule not met.

Use the examples below as a reference point.
{"compound": "Cc1cc(-c2[nH]c3ccc(C4CCN(CC5CCN(C)CC5)CC4)cc3c2C(C)C)ccn1 [Example 743]", "class_name": "rule met"}
{"compound": "Cc1cc(-c2[nH]c3ccc(C4CCNCC4)cc3c2C(C)C)c(C)c(C)n1 [Example 39]", "class_name": "rule not met"}
{"compound": "COCCC(=O)N1CCC(c2ccc3[nH]c(-c4ccnc(C)c4)c(C(C)C)c3c2)CC1 [Example 571]", "class_name": "rule not met"}

Challenge: Quick check, pIC50 >= 8? COc1ncc(CN(C)CC(=O)N2CCC(c3ccc4[nH]c(-c5cc(C)nc(C)c5)c(C(C)C)c4c3)CC2)cn1 [Example 418]
Response given: rule not met

Challenge: Quick check, pIC50 >= 8? CCc1c(-c2cc(C)nc(C)c2)[nH]c2ccc(C3CCN(C(=O)C4CC(=O)N(C)C4)CC3)cc12 (stereo not drawn) [Example 530]
Response given: rule not met

Challenge: Quick check, pIC50 >= 8? Cc1cc(-c2[nH]c3ccc(C4CCN(CCCN(C)C)CC4)cc3c2C(C)C)ccn1 [Example 669]
Response given: rule met

Challenge: Quick check, pIC50 >= 8? CCC(C)NC(=O)CN1CCC(c2ccc3[nH]c(-c4cc(C)nc(C)c4)c(C(C)C)c3c2)CC1 (stereo not drawn) [Example 234]
Response given: rule not met

Challenge: Quick check, pIC50 >= 8? COc1cc(-c2[nH]c3ccc(C4CCN(CC(F)(F)F)CC4)cc3c2C(C)C)ccn1 [Example 639]
Response given: rule not met

Challenge: Quick check, pIC50 >= 8? Cc1nccc(-c2[nH]c3ccc(C4CCNCC4)cc3c2C(C)C)c1N [Example 13]
Response given: rule not met

Challenge: Quick check, pIC50 >= 8? CCc1c(-c2ccncc2)[nH]c2ccc(C3CCNCC3)cc12 [Example 60]
Response given: rule not met
